Collected literature values of IC50 measured for Cyclin-G-associated kinase (Homo sapiens).
Target: Cyclin-G-associated kinase (Homo sapiens)
Sequence (O14976 whole entry): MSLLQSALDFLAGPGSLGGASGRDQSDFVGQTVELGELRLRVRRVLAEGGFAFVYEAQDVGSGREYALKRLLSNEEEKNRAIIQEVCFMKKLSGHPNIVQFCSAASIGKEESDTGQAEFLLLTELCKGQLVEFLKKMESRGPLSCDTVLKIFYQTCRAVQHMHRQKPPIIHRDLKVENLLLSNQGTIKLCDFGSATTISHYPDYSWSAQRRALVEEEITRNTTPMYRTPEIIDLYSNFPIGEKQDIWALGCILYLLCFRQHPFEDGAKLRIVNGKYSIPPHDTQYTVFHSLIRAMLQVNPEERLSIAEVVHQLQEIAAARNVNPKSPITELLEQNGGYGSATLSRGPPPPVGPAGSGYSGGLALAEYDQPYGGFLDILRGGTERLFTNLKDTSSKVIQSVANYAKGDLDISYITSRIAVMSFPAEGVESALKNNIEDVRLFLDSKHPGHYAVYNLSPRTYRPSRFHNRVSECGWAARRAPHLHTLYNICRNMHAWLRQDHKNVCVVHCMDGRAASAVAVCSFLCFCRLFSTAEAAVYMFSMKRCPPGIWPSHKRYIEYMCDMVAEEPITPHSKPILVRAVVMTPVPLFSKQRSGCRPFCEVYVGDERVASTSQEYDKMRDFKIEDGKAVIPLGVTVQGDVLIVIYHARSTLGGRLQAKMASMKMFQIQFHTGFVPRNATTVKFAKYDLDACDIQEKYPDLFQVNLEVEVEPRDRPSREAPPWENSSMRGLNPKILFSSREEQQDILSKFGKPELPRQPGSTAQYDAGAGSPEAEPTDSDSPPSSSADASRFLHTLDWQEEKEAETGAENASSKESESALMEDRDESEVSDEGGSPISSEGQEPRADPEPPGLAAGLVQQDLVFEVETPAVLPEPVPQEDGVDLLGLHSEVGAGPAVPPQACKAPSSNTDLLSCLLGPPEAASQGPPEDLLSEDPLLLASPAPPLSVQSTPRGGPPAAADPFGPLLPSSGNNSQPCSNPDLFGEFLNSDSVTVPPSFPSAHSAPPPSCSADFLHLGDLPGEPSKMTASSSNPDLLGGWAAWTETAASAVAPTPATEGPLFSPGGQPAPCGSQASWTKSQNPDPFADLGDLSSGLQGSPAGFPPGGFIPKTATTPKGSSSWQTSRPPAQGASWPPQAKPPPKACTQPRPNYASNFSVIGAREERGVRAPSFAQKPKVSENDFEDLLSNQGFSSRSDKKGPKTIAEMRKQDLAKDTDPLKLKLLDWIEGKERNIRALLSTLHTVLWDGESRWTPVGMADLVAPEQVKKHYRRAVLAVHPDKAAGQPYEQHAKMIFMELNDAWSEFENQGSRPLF
Assign labels as follows, please: met for IC50 below 0.2 µM; not met for IC50 equal to or exceeding 0.2 µM.

Here are 8 molecules together with their reported answers.
Molecule	Qualitative label
CC(C)C[C@](C)(N)COc1ccc(-c2ccnc(C(F)F)c2)cc1C(F)F	met
CC(C)C[C@](C)(N)COc1ccc(-c2ccnc(C(F)F)c2)nc1C(F)F	not met
COc1cc(-c2cnc3c(N4CCC[C@@H](CNC(=O)C5CC5)C4)snc3c2)ccc1N	not met
CCC(=O)Nc1ccc(-c2snc3cc(-c4ccc(N)c(OC)c4)cnc23)cc1	not met
COc1ccc(/C=C\c2cc(OC)c(OC)c(OC)c2)cc1NC(=O)CCC(=O)N[C@@H](CCCNC(=N)N)C(=O)O	not met
COc1cc(Nc2cc(C)nc3ccc(C(F)(F)F)cc23)cc(OC)c1OC	not met
COC(=O)Nc1cc(-c2ccc(OC[C@@](C)(N)CC(C)C)c(C)n2)ccn1	not met
COC(=O)Nc1cc(-c2ccc(OC[C@@](C)(N)CC(C)C)c(C(F)F)n2)ccn1	met

Please determine if CC(C)(C)NS(=O)(=O)c1cncc(-c2ccn3nc(N)nc3c2)c1 is below 0.2 µM in terms of IC50. not met

Please determine if COc1cc(-c2cnc3c(N4CCCC(CNC(=O)C5CC5)C4)snc3c2)ccc1N (configuration not stated) is below 0.2 µM in terms of IC50. met

Please determine if COc1cc(N(C)c2ccnc3ccc(C(F)(F)F)cc23)cc(OC)c1OC is below 0.2 µM in terms of IC50. not met

Please determine if CC(C)C[C@](C)(N)COc1cnc(-c2ccnc(C(F)F)c2)cc1C(F)F is below 0.2 µM in terms of IC50. not met
